ASSAY PROTOCOL: Compound toxicity assay: inhibition of HeLa cell translation (^3 H-LEU assay)
Assay type: cell-based
CONDITION PARAMETERS: human; HeLa cells, overnight (24 hours) treatment, tritiated leucine incorporation; read-out: CYTOTOXICITY ^3 H--LEU ASSAY IC50
Description: HeLa cells were treated with inhibitory compound for 24 hours, after which levels of translational activity were assayed. For assay of translational activity, HeLa cultures were grown to 80% confluency in 96 well microtiter plates, treated with appropriate concentrations of compound in 2% EMEM during an overnight incubation at 37° C., then rinsed with HBSS and overlaid with […] of 2% EMEM containing 8 uCi of tritiated leucine (^3 H-LEU, 141 Ci/mMol, Amersham Corp., Arlington Heights Ill.). […]
TEST READOUT: CC50 at 24 h (µg/mL)
The figure you give is taken to be in µg/mL; do not add the unit.

Q) Which measured CC50 at 24 h value corresponds to O=C1C(=CNCc2ccccc2)C(=O)N(Cc2ccccc2)c2ccc(Cl)cc21 ?
A) 7

Q) Which measured CC50 at 24 h value corresponds to Cc1cccc2c1N(Cc1ccccc1)C(=O)C(=CNCc1ccccc1)C2=O ?
A) 10

Q) Which measured CC50 at 24 h value corresponds to CCCCCCCN1C(=O)C(=CNN2CCOCC2)C(=O)c2ccccc21 ?
A) 29

Q) Which measured CC50 at 24 h value corresponds to COc1ccc(OCCCOCN2C(=O)C(=CNCc3ccncc3)C(=O)c3ccccc32)c(Cl)c1 ?
A) 30

Q) Which measured CC50 at 24 h value corresponds to Cc1ccc2c(c1)C(=O)C(=CNCc1ccncc1)C(=O)N2Cc1ccccc1 ?
A) 37

Q) Which measured CC50 at 24 h value corresponds to O=C1C(=CNCc2ccncc2)C(=O)N(c2ccccc2)c2ccccc21 ?
A) 25

Q) Which measured CC50 at 24 h value corresponds to Cc1cccc2c1N(Cc1ccccc1)C(=O)C(=CNCc1ccncc1)C2=O ?
A) 29

Q) Which measured CC50 at 24 h value corresponds to CN1C(=O)C(=CNCc2ccccc2)C(=O)c2ccccc21 ?
A) 27

Q) Which measured CC50 at 24 h value corresponds to O=C1C(=CNCc2ccncc2)C(=O)N(Cc2ccccc2)c2cc(Cl)ccc21 ?
A) 40

Q) Which measured CC50 at 24 h value corresponds to CCNC=C1C(=O)c2ccccc2N(C)C1=O ?
A) 43

====

ASSAY PROTOCOL: Compound toxicity assay: inhibition of HeLa cell translation (^3 H-LEU assay)
Type: cell-based
CONDITION PARAMETERS: human; HeLa cells, overnight (24 hours) treatment, tritiated leucine incorporation; read-out: CYTOTOXICITY ^3 H--LEU ASSAY IC50
In plain terms, low CC50 at 24 h, meaning strictly below 20 µg/mL, gives 1.0, and everything else gives 0.0.

Q) Hello, is CC50 at 24 h of the following compound strictly smaller than 20 µg/mL? O=C1C(=CNCc2ccccc2)C(=O)N(Cc2ccccc2)c2ccsc21 [EX. 45]
A) 0.0

Q) Hello, is CC50 at 24 h of the following compound strictly smaller than 20 µg/mL? CCCCCCN1C(=O)C(=CNCc2ccncc2)C(=O)c2ccccc21 [EX. 26]
A) 0.0

Q) Hello, is CC50 at 24 h of the following compound strictly smaller than 20 µg/mL? Cc1cccc(NC=C2C(=O)c3cccnc3N(c3ccccc3)C2=O)n1 [EX. 37]
A) 0.0

Q) Hello, is CC50 at 24 h of the following compound strictly smaller than 20 µg/mL? O=C1C(=CNCc2ccccc2)C(=O)N(Cc2ccccc2)c2ccccc21 [EX. 23]
A) 0.0

Q) Hello, is CC50 at 24 h of the following compound strictly smaller than 20 µg/mL? O=C1C(=CNCc2ccccc2)C(=O)N(c2ccccc2)c2ccccc21 [EX. 27]
A) 1.0

Q) Hello, is CC50 at 24 h of the following compound strictly smaller than 20 µg/mL? O=C1C(=CNCc2ccncc2)C(=O)N(Cc2ccccc2)c2ccccc21 [EX. 24]
A) 0.0

Q) Hello, is CC50 at 24 h of the following compound strictly smaller than 20 µg/mL? CN1C(=O)C(=CNCc2ccncc2)C(=O)c2ccccc21 [EX. 22]
A) 0.0

Q) Hello, is CC50 at 24 h of the following compound strictly smaller than 20 µg/mL? CCCCCCCN1C(=O)C(=CNC23CC4CC(CC(C4)C2)C3)C(=O)c2ccccc21 [EX. 40]
A) 0.0

Q) Hello, is CC50 at 24 h of the following compound strictly smaller than 20 µg/mL? O=C1C(=CNCc2ccccc2)C(=O)N(c2ccccc2)c2ncccc21 [EX. 36]
A) 0.0

Q) Hello, is CC50 at 24 h of the following compound strictly smaller than 20 µg/mL? CCCCCCN1C(=O)C(=CNCc2ccccc2)C(=O)c2ccccc21 [EX. 25]
A) 0.0

Q) Hello, is CC50 at 24 h of the following compound strictly smaller than 20 µg/mL? O=C1C(=CNCc2ccncc2)C(=O)N(Cc2ccccc2)c2ccsc21 [EX. 46]
A) 0.0

Q) Hello, is CC50 at 24 h of the following compound strictly smaller than 20 µg/mL? CCCCCCCN1C(=O)C(=CNCc2ccccc2)C(=O)c2ccccc21 [EX. 29]
A) 1.0

Q) Hello, is CC50 at 24 h of the following compound strictly smaller than 20 µg/mL? CCCCCCN1C(=O)C(=CN[C@H]2C(O)O[C@H](CO)[C@@H](O)[C@@H]2O)C(=O)c2ccccc21 (some centres unmarked) [EX. 42]
A) 0.0

Q) Hello, is CC50 at 24 h of the following compound strictly smaller than 20 µg/mL? CCNC=C1C(=O)c2cccnc2N(c2ccccc2)C1=O [EX. 35]
A) 0.0

Q) Hello, is CC50 at 24 h of the following compound strictly smaller than 20 µg/mL? C=CCNC=C1C(=O)Oc2ccccc2C1=O [EX. 34]
A) 0.0

Q) Hello, is CC50 at 24 h of the following compound strictly smaller than 20 µg/mL? O=C1C(=CNCc2ccncc2)C(=O)N(Cc2ccccc2)c2ccc(Cl)cc21 [EX. 17]
A) 1.0

Q) Hello, is CC50 at 24 h of the following compound strictly smaller than 20 µg/mL? O=C1C(=CNCc2ccccc2)C(=O)N(Cc2ccccc2)c2cc(Cl)ccc21 [EX. 18]
A) 1.0

Q) Hello, is CC50 at 24 h of the following compound strictly smaller than 20 µg/mL? O=C1C(=CNCc2cnc[nH]2)C(=O)N(Cc2ccccc2)c2ccccc21 [EX. 41]
A) 0.0

Q) Hello, is CC50 at 24 h of the following compound strictly smaller than 20 µg/mL? CN(C)C=C1C(=O)c2cccnc2N(c2ccccc2)C1=O [EX. 32]
A) 0.0

Every entry's value here was drawn from patent US5179093A.
